- Tested on: IL-17A
- measurementProtocol: IL-17 release from differentiated primary human T-cells (IL-17A HTRF assay)
- Assay type: cell-based
- conditionContext: primary human CD4+ T cells differentiated into Th17 cells, 45-hour incubation, IL-17A in supernatant; read-out: hIL17 IC50
- Protocol: C. IL-17 Release from Differentiated Primary Human T-Cells and Cell Viability Primary human cryopreserved CD4+ T Cells (Lonza) were thawed according to the manufacturer's recommendations and plated either in Lymphocyte Growth Medium-3 (LGM-3) or X-VIVO 20 media (Lonza) in 96-well tissue culture plates at a density of ˜2×10^5 cells per well, and allowed to recover for approximately 4 hours at 37° C. with 5% CO2 in a humidified atmosphere. […]
measuredParameter: IC50 (nM)

Solved entries:
>>> testresult("C[C@H]1C(=O)C(C#N)=C[C@@]2(C)c3nc(-c4cccc(-c5ccnn5C)c4)n(-c4cccc(F)c4)c3CC[C@H]12")
154
>>> testresult("C[C@H]1C(=O)C(C#N)=C[C@@]2(C)c3nc(-c4cccc5ncccc45)n(-c4cccc(F)c4)c3CC[C@H]12")
144

a: Cc1noc(-c2ccc(-n3nc(-c4ccccc4F)c4c3[C@]3(C)C=C(C#N)C(=O)[C@H](C)[C@H]3CC4)cc2)n1
b: Cc1cc(-c2ccc(-n3nc(-c4ccncn4)c4c3[C@]3(C)C=C(C#N)C(=O)[C@H](C)[C@H]3CC4)cc2)cnn1
Incoming: Select one. Lower IC50: a or b Your choice should be expressed through its label.
Outgoing: a
(a: 40 nM, b: 129 nM)
